The measured values listed here are drawn from ChEMBL document CHEMBL5608173.

# System: Isocitrate dehydrogenase [NADP] cytoplasmic (Homo sapiens), O75874 [R132C]
# Sequence (O75874 whole entry R132C): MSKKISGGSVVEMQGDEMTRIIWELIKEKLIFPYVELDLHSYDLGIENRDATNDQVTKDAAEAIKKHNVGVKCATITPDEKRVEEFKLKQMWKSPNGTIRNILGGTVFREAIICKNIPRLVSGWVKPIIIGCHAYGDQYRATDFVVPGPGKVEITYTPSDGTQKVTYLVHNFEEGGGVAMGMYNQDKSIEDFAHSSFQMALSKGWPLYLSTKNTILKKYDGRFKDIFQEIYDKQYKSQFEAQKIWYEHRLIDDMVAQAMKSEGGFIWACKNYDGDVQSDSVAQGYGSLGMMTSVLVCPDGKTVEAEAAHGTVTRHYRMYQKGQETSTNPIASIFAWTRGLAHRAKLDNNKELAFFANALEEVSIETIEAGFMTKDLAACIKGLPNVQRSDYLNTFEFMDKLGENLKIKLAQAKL
# experiment.description: Inhibition of recombinant human IDH1 R132C mutant extracted from Escherichia coli BL21 (DE3) cells using alpha-ketoglutarate as substrate at 0.2 uM incubated for 60 mins in presence of NADPH by absorbance based assay relative to control
recorded.metric: inhibition

For each of the items listed, what is its inhibition?
1. COc1cc(O)c(-c2cc(-c3ccc(O)cc3)nc(N3CCOCC3)n2)cc1CC=C(C)C
2. COc1ccc(-c2cc(-c3ccc(O)cc3)nc(-c3ncccn3)n2)c(O)c1
3. COc1cc(O)c(-c2cc(-c3ccc(O)cc3)nc(-c3ccncc3)n2)cc1CC=C(C)C
4. COc1cc(O)c(-c2cc(-c3ccc(O)cc3)nc(N3CCCC3)n2)cc1CC=C(C)C
5. COc1cc(O)c(-c2cc(-c3ccc(O)cc3)nc(-c3ccccn3)n2)cc1CC=C(C)C
6. COc1cc(O)c(-c2cc(-c3ccc(O)cc3)nc(C3CCCO3)n2)cc1CC=C(C)C (configuration not stated)

["24.1%", "82%", "28.2%", "30.9%", "22.7%", "13.4%"]
